Reported melting point values follow for various molecules

Example cases with answers are listed next.
CCOC(=O)c1c(NC(=S)NCc2ccccc2)sc2c1CCN(Cc1ccccc1)C2    135 to 138 °C
CC(=O)c1cc(-c2c(Cl)cccc2Cl)no1    117 to 119 °C
Cn1ccc2c(C(=O)O)cccc21    243 to 245 °C
CC(C)(C)OC(=O)NC(COC1CCCCO1)CS(=O)(=O)c1ccccc1 (stereo not given)    100 to 104 °C

Lab note: next molecule to report on.
Any idea what its melting point is? The molecule is "CC(C)n1cc(C#N)c(=O)[nH]c1=O"
265 to 268 °C

====

endpoint_name: melting point

Example cases with answers are listed next.
O=S(=O)(SS(=O)(=O)c1ccccc1)c1ccccc1    129 to 134 °C
O=C(O)c1cc2cc(F)ccc2[nH]1    254 to 258 °C
CC1=C(C)C([Si](C)(C)C2C(C)=C(C)C(C)=C2C)C(C)=C1C    65 to 68 °C
CC(C)(C)S(=O)(=O)c1cnc(N2CCCC2)nc1N    199 to 201 °C
O=C(Nc1cccnc1Cl)c1ccc(F)cc1    140 to 142 °C
Cc1ccc(NC(N)=O)cc1    178 to 181 °C

Lab note: next molecule to report on.
Any idea what its melting point is? The molecule is CC(O[S+]([O-])C(C)(C)C)C(O)(c1ccccc1)c1ccccc1 (configuration not stated)
135 to 137 °C

====

Reported melting point values follow for various molecules

O=C(O)c1cc(S(=O)(=O)Cl)ccc1O    168 to 170 °C
CNc1nnc(S)s1    190 to 193 °C
N#CCc1ccccc1C#N    73 to 79 °C
OC1CC(c2ccccc2)NC2(CCCC2)C1 (configuration not stated)    240 to 243 °C
CC1(C)C(N)=[N+]([O-])C(c2ccccc2)N1O (configuration not stated)    208 to 210 °C

Any idea what its melting point is? The molecule is "Cc1ccc(S(=O)(=O)n2ccc(C(=O)O)c2)cc1"
202 to 206 °C

Any idea what its melting point is? The molecule is O=C1CC2C(Cl)CC1C2C(=O)O (configuration not stated)
157 to 160 °C

Any idea what its melting point is? The molecule is "O=C(O)c1cccc2c1C(=O)c1ccccc1-2"
194 to 198 °C

Any idea what its melting point is? The molecule is CCC1C(C=NO)=NC(C)(C)N1O (configuration not stated)
163 to 164 °C

Any idea what its melting point is? The molecule is "Cc1nn(-c2ccccc2)c2oc3ncccc3c(=O)c12"
223 to 224 °C

Any idea what its melting point is? The molecule is COc1ccc(C2CC(c3ccc4ccccc4c3)=NN2C(N)=O)cc1 (configuration not stated)
173 to 175 °C

Any idea what its melting point is? The molecule is "NC(=O)c1cc(O)c(O)c(O)c1"
240 to 243 °C

====

endpoint_name: melting point

Cn1nc(CO)cc1-c1cccs1    56 to 60 °C
O=C1c2ccccc2C(=O)c2c1cc1ccccc1c2O    320 to 322 °C
Oc1ccc2ccccc2c1CN1CCCCC1    93 to 94 °C
NNc1nc(N)nc(-c2ccccn2)n1    287 to 289 °C
CCCCCc1ccc(OC(=O)c2ccc(OC(=O)c3ccc(CCCCC)cc3)cc2Cl)cc1    39 to 122 °C
N#Cc1c(O)nsc1Nc1ccccc1Cl    100 °C

Any idea what its melting point is? The compound is "O=C(O)Cc1ccc(Oc2ccccc2)cc1"
79 to 81 °C

Any idea what its melting point is? The compound is "Cc1nc(-c2ccc(C(=O)O)cc2)no1"
262 to 264 °C

Any idea what its melting point is? The compound is "Cn1nc(CO)cc1-c1ccco1"
43 to 48 °C

Any idea what its melting point is? The compound is "CCOC(=O)C(Cl)=NNc1ccccc1"
77 to 80 °C

Any idea what its melting point is? The compound is O=C1c2ccccc2OC(CCCl)N1O (stereo unspecified)
114 to 116 °C

====

endpoint_name: melting point (°C)

CC(Br)C(Br)c1nc(O)n(-c2ccccc2)n1 (stereo unspecified)    128

[a] Nc1cnccc1Cl
[b] CC(=O)Oc1ccccc1
Larger number for melting point: a , or b ? Reply with the label of the item you choose.
a

====

endpoint_name: melting point

Example cases with answers are listed next.
CSc1nc(N)c(C(N)=O)s1    199 to 200 °C
N#Cc1ccc(NC(N)=S)cc1    209 to 210 °C
Cc1cncc(Oc2cccc(Br)c2)n1    38 to 39.5 °C
Cc1nnsc1-c1onc(C)c1C(=O)Cl    66 to 70 °C
O=C(O)C1OC(C(=O)O)C(C(=O)O)C1C(=O)O (stereo unspecified)    205 to 210 °C

Lab note: next compound to report on.
Any idea what its melting point is? The compound is "CC(=NO)c1ccc(Cl)cc1Cl"
148 to 151 °C

====

Reported melting point values follow for various molecules

COc1ccc([N+](=O)[O-])c(Cl)n1    78 to 80 °C
O=C(C[N+](=O)[O-])c1ccccc1    101 to 106 °C

Lab note: next molecule to report on.
Any idea what its melting point is? The molecule is "O=C(O)c1c(F)c(F)c(F)c(C(=O)O)c1F"
209 to 213 °C

====

endpoint_name: melting point

Example cases with answers are listed next.
NC(=S)COc1cccc(Cl)c1    122 to 124 °C
COC(=O)c1ccccc1S(N)(=O)=O    125 to 127 °C
N#CCc1nc(-c2ccc(Cl)c(Cl)c2)cs1    106 to 107 °C
BrCc1cccc2nsnc12    89 to 92 °C
Nc1ccc2c(c1)C(=O)c1ccccc1C2=O    304 °C

Any idea what its melting point is? The compound is C[C@@]1(CO)N[C@H](C(=O)O)CC2c3ccccc3NC21 (stereo not given in full)
258 to 262 °C

Any idea what its melting point is? The compound is "Cc1cncc(N2CCC(C(=O)O)CC2)n1"
151 to 152 °C

Any idea what its melting point is? The compound is "CCCCOCCOCCCC"
-69.1 °C

Any idea what its melting point is? The compound is "O=S(=O)(Oc1ccc(Cl)cc1Cl)c1ccccc1"
45.5 °C

Any idea what its melting point is? The compound is "N#Cc1cccnc1Sc1ccccc1"
105 to 107 °C

====

endpoint_name: melting point

Example cases with answers are listed next.
COC(=O)c1scc(S(=O)(=O)C(C)C)c1N    139 to 143 °C
N#Cc1c(S)nc2c(c1C(F)(F)F)CCCC2    216 to 220 °C
c1cc(NNc2cccc(-n3cccn3)c2)cc(-n2cccn2)c1    169 to 171 °C
COC(=O)CCCCCCC(=O)O    17 to 19 °C
COC(=O)C(C)N(C(=O)c1ccco1)c1c(C)cccc1C (configuration not stated)    102 °C
CNCc1ccc(-c2ccccc2)nc1    39 to 41.5 °C

Lab note: next molecule to report on.
Any idea what its melting point is? The molecule is "COc1cc(C(=O)O)c([N+](=O)[O-])c(OC)c1OC"
166 to 169 °C

====

Reported melting point values follow for various molecules

Example cases with answers are listed next.
OCc1csc(-c2cccs2)n1    87 to 90 °C
CC(C)(C)OC(=O)N1CCC[C@@H]1C(=O)O    133 to 135 °C
CC(C)(C)c1ccc(-c2nn[nH]n2)cc1    193 to 195 °C
Brc1ccc(Oc2c(Br)cc(Br)cc2Br)c(Br)c1    97 to 98 °C
CC(SCc1ccccc1)C(=O)O (stereo unspecified)    79 to 81 °C

Lab note: next molecule to report on.
Any idea what its melting point is? The molecule is "O=Cc1ccccc1OCCN1CCOCC1"
43 to 45 °C

====

endpoint_name: melting point

Example cases with answers are listed next.
O=[N+]([O-])c1ccc(-n2cc([N+](=O)[O-])c(-c3ccccc3)n2)cc1    230 to 232 °C
O=C(NC1C2C=CC(C2)C1C(=O)O)OCc1ccccc1 (stereo unspecified)    119 to 123 °C
Cc1csc(=S)n1O    88 to 93 °C
c1cc(-c2cnco2)ccn1    127 to 128 °C
CCCc1c(C(=O)O)cnn1-c1cc(Cl)cc(Cl)c1    169 to 171 °C

Lab note: next compound to report on.
Any idea what its melting point is? The compound is "Cn1c(CN)nc2ccccc21"
261 to 263 °C

====

Reported melting point values follow for various molecules

Example cases with answers are listed next.
Cc1ccc2sc(C(=O)O)cc2c1    222 to 223 °C
Cc1cc(=O)[nH]c2c(/N=N/c3ccc(Cl)cc3)c(N)nn12    307 to 308 °C
CC(=O)Oc1ccc(C(C)=O)c(O)c1    57 to 59 °C
COc1cc(C(F)(F)F)nc2ccc(C)c([N+](=O)[O-])c12    181 to 183 °C
Cc1cccc(C)c1NC(=O)CN(CC(=O)O)CC(=O)O    213 to 216 °C

Any idea what its melting point is? The molecule is "O=C(O)c1c(O)cccc1O"
160 to 165 °C

Any idea what its melting point is? The molecule is "O=Cc1c[nH]nc1-c1ccccc1"
146 to 148 °C

Any idea what its melting point is? The molecule is "Cn1c(CO)cc2occc21"
74 to 76 °C

Any idea what its melting point is? The molecule is "O=C(O)CCc1cccc(Cl)c1"
72 to 74 °C

Any idea what its melting point is? The molecule is "CS(=O)(=O)CN1C(=O)NC(c2ccccc2)(c2ccccc2)C1=O"
196 to 197 °C

Any idea what its melting point is? The molecule is "CCc1ccccc1-n1c(C)nc2ccccc2c1=O"
81 °C

Any idea what its melting point is? The molecule is "c1ccc(P(c2ccccc2)c2ccccc2Oc2ccccc2P(c2ccccc2)c2ccccc2)cc1"
184 to 187 °C

Any idea what its melting point is? The molecule is "Cc1cc2cc3c(C)cc(=O)oc3c(C)c2o1"
230 to 234 °C

Any idea what its melting point is? The molecule is "CCOC(=O)C(C#N)=C(S)Nc1ccccc1"
118 to 119 °C

Any idea what its melting point is? The molecule is "NCc1ccc(-n2cccn2)cc1"
75 to 78 °C

Any idea what its melting point is? The molecule is "Cc1cccc(Cn2nc(C(C)(C)C)cc2C(=O)NN)c1"
102 to 104 °C

Any idea what its melting point is? The molecule is "CCNc1cc(NC(C)=O)ccc1C"
107 to 109 °C

Any idea what its melting point is? The molecule is "COC(=O)c1ccc(C)c(C)c1"
36 to 38 °C

Any idea what its melting point is? The molecule is "O=C(O)C=CC(=O)O"
295 to 300 °C
